experiment-description: Plasma pharmacokinetics on Day 10 after multiple doses of LED-E q8h (VNRX-7145-101 Part 2, VNRX-7145-102 Part 2)
Type: in vivo, human
setup-conditions: human, plasma, oral, 75 mg, Day 10, LED-E 75 mg q8h; plasma; geometric mean (CV %); read-out: t1/2 (converted)
reported-endpoint: half-life (h)
Answer in h, number only, no unit symbol.

- smiles-text: "CCC(=O)N[C@H]1Cc2cccc(C(=O)OCOC(=O)C(CC)CC)c2OB1O"
  half-life [h]: 3.07

[in] Provide half-life value for the following compound: CCC(=O)N[C@H]1Cc2cccc(C(=O)O)c2OB1O
[out] 9.3
